The following compounds are shown together with reported hepatic extraction ratio at 1 µM values.
EXPERIMENTAL_PROTOCOL: Stability in mouse liver microsomes assessed as hepatic extraction ratio at 1 uM preincubated with compound followed by NADPH addition by LC-MS/MS analysis
Type: ADME, Microsome
CONDITION_DETAILS: read-out: ERH

FC(F)(F)c1ccc(/S(=N\c2ccccc2)C2CC2)cc1 (stereo not given) :: > 0.88
CS(=N)(=O)c1ccc(C(F)(F)F)cc1 (stereo not given) :: < 0.23
Cc1ccc(S(=N)C2CC2)cc1 (stereo not given) :: < 0.23
COc1ccc(/S(=N/C(=O)C(C)(C)C)c2ccc(C)cc2)cc1 (stereo not given) :: > 0.88

Now, please, on to the next compound.
Exercise: hepatic extraction ratio at 1 µM lookup needed for CC(=O)/N=S(\c1ccc(C(F)(F)F)cc1)C1CC1 (stereo not given) , thanks.
Key: < 0.23

Measured values drawn from ChEMBL document CHEMBL6153047 for this set.
